# Test system: SK-MEL-5
# RUN_DESCRIPTION: NCI 60-cell line one-dose antiproliferative screen (SRB)
# Type: cell-based
# SETTINGS: Homo sapiens, read-out: growth inhibition % (GI%)
Please respond with reported inhibition at 10 µM for every item in the list.

Here are 5 compounds together with their reported answers.
{"COMPOUND": "Cc1ccc(C(=O)c2ccc(CC(=O)NN3C(=O)CCC3=O)n2C)cc1 [Compound 7a]", "ASSAYED_TARGET": "SK-MEL-5", "inhibition at 10 µM": "< 10%"}
{"COMPOUND": "Cc1ccc(C(=O)c2ccc(CC(=O)NN3C(=O)C=CC3=O)n2C)cc1 [Compound 7b]", "ASSAYED_TARGET": "SK-MEL-5", "inhibition at 10 µM": "< 10%"}
{"COMPOUND": "Cc1ccc(C(=O)c2ccc(CC(=O)NN=Cc3ccccc3O)n2C)cc1 [Compound 5a]", "ASSAYED_TARGET": "SK-MEL-5", "inhibition at 10 µM": "12.6%"}
{"COMPOUND": "Cc1ccc(C(=O)c2ccc(CC(=O)NNC(=O)Nc3c(Cl)cccc3Cl)n2C)cc1 [Compound 8a]", "ASSAYED_TARGET": "SK-MEL-5", "inhibition at 10 µM": "< 10%"}
{"COMPOUND": "Cc1ccc(C(=O)c2ccc(CC(=O)NNC(=O)Nc3ccc(Cl)c(C(F)(F)F)c3)n2C)cc1 [Compound 8c]", "ASSAYED_TARGET": "SK-MEL-5", "inhibition at 10 µM": "22.3%"}

// each compound listed below needs its inhibition at 10 µM
1. Cc1ccc(C(=O)c2ccc(CC(=O)NN=C3C(=O)Nc4ccc(Br)cc43)n2C)cc1 [Compound 6b]
2. Cc1ccc(C(=O)c2ccc(CC(=O)NN=Cc3ccc(O)cc3O)n2C)cc1 [Compound 5c]
3. Cc1ccc(C(=O)c2ccc(CC(=O)NN=C3C(=O)Nc4ccccc43)n2C)cc1 [Compound 6a]

Reply |
1: < 10%; 2: 60.7%; 3: < 10%
